target: T1, 3-pHis peptide (Biotin-AminocaproicAcid-A.G.A.G.H.A.G.A.G phosphorylated by phosphoramidate); assay: BLI; Octet RED96e; biotinylated peptides captured on streptavidin biosensors at 20 nM; Fab in solution, 20-200 nM; 1x HBS-T, 1% BSA
T1 construct: His-peptide, phosphorylated on His5; the phosphoramidate reaction gives a mixture of non-phosphorylated, 1-pHis, 3-pHis and di-pHis peptide; also called Biotinylated ACLYana-3-pHis; ACLYana-pHis; source: synthetic peptide, phosphorylated with potassium phosphoramidate; not shown: biotin, N-terminal, kept
T1 peptide: {Biotin-Ahx}-AGAG[3‑pHis]AGAG
QUANTITY KIND: kon
// unit must come after the numeric part

[
  {
    "BINDER": "hSC44.20.N32Y^L Fab (Fab, V domains shown) VH: EVQLVESGGGLVQPGGSLRLSCTASGFSIDSYGFSWVRQAPGKGLEHIGYLTAGGRAFYASWAKSRSTITRNTNENTVTLKMNSLRAEDTAVYYCAKLGTGSRFAIWGQGTLVTVSS VL: DIQMTQSPSSLSASVGDRVTITCRASQSVWRNKYVAWYQQKPGKAPKRLIYAIASLYSGVPSRFSGSGSGTDFTLTISSLQPEDFATYYCVGHYGSENDAYYAFGQGTKVEIK",
    "kon": "129000 M⁻¹ s⁻¹"
  }
]

In the following, a different binder is considered.
(Q) Bench note: what kon did hSC44 Fab (Fab, V domains shown) VH: EVQLVESGGGLVQPGGSLRLSCTASGFSIDSYGFSWVRQAPGKGLEHIGYLTAGGRAFYASWAKSRSTITRNTNENTVTLKMNSLRAEDTAVYYCAKLGSGNPVAIWGQGTLVTVSS VL: DIQMTQSPSSLSASVGDRVTITCRASQSVWRNKNVAWYQQKPGKAPKRLIYAIASLYSGVPSRFSGSGSGTDFTLTISSLQPEDFATYYCVGHYGSENDAYYAFGQGTKVEIK show?
(A) 57900 M⁻¹ s⁻¹
